Target: Quinolone resistance protein NorA (Staphylococcus aureus)
Assay: Inhibition of NorA pump-mediated ethidium bromide efflux in Staphylococcus aureus K1199B at 50 uM by fluorimetric analysis
reported endpoint: inhibition (%)

> print(dat)
                                    compound                               target.desc  result.unit  number
 1                 COc1ccccc1C1=Nc2ccccc2SC1  Quinolone resistance protein NorA (Staphylococcus aureus)            %       0
 2             COc1ccc(C2=Nc3ccccc3SC2)cc1OC  Quinolone resistance protein NorA (Staphylococcus aureus)            %    22.8
 3         COc1cc(C2=Nc3ccccc3SC2)cc(OC)c1OC  Quinolone resistance protein NorA (Staphylococcus aureus)            %    23.6
 4       FC(F)(F)c1ccc2c(c1)N=C(c1ccccc1)CS2  Quinolone resistance protein NorA (Staphylococcus aureus)            %     8.4
 5          CN(C)CCCN1c2ccccc2Sc2ccc(Cl)cc21  Quinolone resistance protein NorA (Staphylococcus aureus)            %      81
 6                Fc1ccc(C2=Nc3ccccc3SC2)cc1  Quinolone resistance protein NorA (Staphylococcus aureus)            %       0
 7  COc1ccc(C2CSc3ccccc3N2)cc1 (stereo not given)  Quinolone resistance protein NorA (Staphylococcus aureus)            %    10.4
 8  O=[N+]([O-])c1ccc(C2=Nc3cc(C(F)(F)F)ccc3SC2)cc1  Quinolone resistance protein NorA (Staphylococcus aureus)            %    69.7
 9                 c1ccc(C2=Nc3ccccc3SC2)cc1  Quinolone resistance protein NorA (Staphylococcus aureus)            %       0
10         CC(C)CCOc1ccc(C2=Nc3ccccc3SC2)cc1  Quinolone resistance protein NorA (Staphylococcus aureus)            %    16.9
11     O=[N+]([O-])c1ccc(C2=Nc3ccccc3SC2)cc1  Quinolone resistance protein NorA (Staphylococcus aureus)            %    19.6
12               COc1ccc(C2=Nc3ccccc3SC2)cc1  Quinolone resistance protein NorA (Staphylococcus aureus)            %    19.5
13             CCCOc1ccc(C2=Nc3ccccc3SC2)cc1  Quinolone resistance protein NorA (Staphylococcus aureus)            %    84.7
14            CCCOc1ccc(C2=CSc3ccccc3N2C)cc1  Quinolone resistance protein NorA (Staphylococcus aureus)            %       0
15  CSc1ccc(C2CSc3ccccc3N2)cc1 (stereo not given)  Quinolone resistance protein NorA (Staphylococcus aureus)            %    28.2

---

Target: Quinolone resistance protein NorA (Staphylococcus aureus) (UniProt P0A0J7)
Test: Inhibition of NorA overexpressing Staphylococcus aureus K2378 assessed as fold reduction of ciprofloxacin MIC at 12.5 ug/mL by microdilution technique
reported endpoint: fold change (FC)

> print(dat)
                                   compound  result
1  O=[N+]([O-])c1ccc(C2=Nc3cc(C(F)(F)F)ccc3SC2)cc1      16
2       FC(F)(F)c1ccc2c(c1)N=C(c1ccccc1)CS2      16
3  COc1ccc(C2CSc3ccccc3N2)cc1 (stereo not drawn)       4
4               COc1ccc(C2=Nc3ccccc3SC2)cc1       4
5         COc1cc(C2=Nc3ccccc3SC2)cc(OC)c1OC       4
6  CSc1ccc(C2CSc3ccccc3N2)cc1 (stereo not drawn)       8
7             COc1ccc(C2=Nc3ccccc3SC2)cc1OC       4
8                Fc1ccc(C2=Nc3ccccc3SC2)cc1       2
